# credit: paper PMC7321161

Listed here are molecules together with their documented ED50.
procedure_details: Operant responding (FR10 food reinforcement) in squirrel monkeys
condition_set: male, monkey, in vivo
// return numeric value only (unit: mg/kg, not printed)

{"molecule": "CN1CC[C@]23c4c5ccc(O)c4O[C@H]2[C@@H](O)C=C[C@H]3[C@H]1C5 [Morphine, reference compound]", "ED50 (mg/kg)": 1.3}

Next up:
**Q:** Fill in: ED50 of O=C1CCC2C3Cc4ccc(O)c5c4[C@@]2(CCN3CCc2ccc(Cl)cc2)[C@H]1O5 (some centres unmarked) [Compound 2i] is ___
**A:** 0.022

====

Listed here are compounds together with their documented EC50.
test_system: human KOR (Homo sapiens, UniProt P41145)
Construct: membranes
Sequence (P41145 whole entry): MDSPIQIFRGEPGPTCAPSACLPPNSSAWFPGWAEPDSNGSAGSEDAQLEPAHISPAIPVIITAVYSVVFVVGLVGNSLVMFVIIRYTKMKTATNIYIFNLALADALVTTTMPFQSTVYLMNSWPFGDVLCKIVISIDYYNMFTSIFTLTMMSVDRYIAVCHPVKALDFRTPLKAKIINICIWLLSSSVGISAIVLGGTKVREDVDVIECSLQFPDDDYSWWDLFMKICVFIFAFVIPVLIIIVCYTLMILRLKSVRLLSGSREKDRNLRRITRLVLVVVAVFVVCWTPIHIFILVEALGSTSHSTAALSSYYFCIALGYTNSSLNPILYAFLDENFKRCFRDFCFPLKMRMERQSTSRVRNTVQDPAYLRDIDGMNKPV
procedure_details: Stimulation of [35S]GTPγS binding, CHO cell membranes expressing KOR
// return numeric value only (unit: nM, not printed)

**Q:** Fill in: EC50 of COc1ccc(CCN2CC[C@]34c5c6ccc(O)c5O[C@H]3C(=O)CCC4C2C6)cc1 (stereo partly drawn) is ___
**A:** 5.9

**Q:** Consider next the compound N#CCCCN1CCC23c4c5ccc(O)c4OC2C(=O)CCC3C1C5 (stereo not drawn) in the same way.
**A:** 24.3

**Q:** Consider next the compound Cc1ccc(CCN2CC[C@]34c5c6ccc(O)c5O[C@H]3C(=O)CCC4C2C6)cc1 (stereo partly drawn) in the same way.
**A:** 38.1
